Test system: SK-OV-3 ovarian
procedure-text: NCI-60 one-dose screen, 48 h (100 = growth as untreated, 0 = no growth, -100 = all killed)
run-conditions: 10 µM unless noted
About 83,000 compounds went through this panel and 20% of them were active in at least one assay; those are over-represented in the sample as a whole.
quantity: growth (%)
Answers are plain numbers, in %.

Below, 3 compounds whose answers are already recorded.
[[record]]
compound = "CC1Cc2ccc(OCCN(C)C)cc2C1=O (stereo not given)"
experimental_target = "SK-OV-3 ovarian"
assay_value = 97.8

[[record]]
compound = "O=C(Nc1cccc2cccnc12)c1cc(C(=O)c2ccc(Cl)cc2)n2ccc(-c3ccncc3)cc12"
experimental_target = "SK-OV-3 ovarian"
assay_value = 92.1

[[record]]
compound = "O=S(=O)(NCc1ccccc1)c1ncnc2nc[nH]c12"
experimental_target = "SK-OV-3 ovarian"
assay_value = 108


Hello, I would appreciate it if you could give growth for each entry below.
1. CC(C)[C@H]1COC(=O)N1[C@@H]1C(=O)N([C@@H](CCC(=O)N2CCN(C3CCCC3)CC2)C(=O)N[C@@H]2CCCc3ccccc32)[C@@H]1/C=C/c1cccc(Cl)c1
2. Oc1ccc(N=Nc2nccs2)c(O)c1

output:
88.1
78.2

====

System: MDA-MB-435 melanoma
procedure-text: NCI-60 one-dose screen, 48 h
run-conditions: 10 µM unless noted
The panel holds about 83,000 compounds, 20% with a hit somewhere; the sample as a whole holds those more often. Calls of active or inactive are those of the source. Rule for the calls: active = growth percent below 10; inactive = the rest.
Give your call using only these classes: true (1) (active), false (0) (inactive)

Known results for compounds:
[[record]]
compound = "Cc1ccc2c(c1)C(C)Cc1c(Cl)ncnc1N2C (centres undefined)"
group_label = "true (1)"

[[record]]
compound = "CC(=O)OC[C@]12CC[C@@H]([C@@H](C)C(N)=O)[C@@H]1[C@H]1CC[C@@H]3[C@@]4(C)CC[C@H](OC(C)=O)C(C)(C)[C@@H]4CC[C@@]3(C)[C@]1(C)CC2"
group_label = "true (1)"

[[record]]
compound = "CCOC(=O)C1=C(C(=O)c2ccc(Br)cc2)C(c2ccc(Br)cc2)NC(=S)N1 (centres undefined)"
group_label = "false (0)"


input: Per the assay record, what outcome was assigned to Cc1ccc(S(=O)(=O)n2cc(C(=O)C(=O)N3CCCCC3)c3ccccc32)cc1 ?
output: false (0)

====

Tested on: RXF 393 renal
procedure-text: NCI-60 one-dose screen, 48 h
run-conditions: 10 µM unless noted
Protocol: Cells are grown in 96 well plates and exposed to the test compound for 48 hours. Compounds are tested at a single concentration, which is 10^-5 M for most compounds. The reported endpoint is percent growth (GI% or GIPRCNT), where numbers from 0 - 100% represent growth inhibition, and numbers from -100% - 0 represent cell death. For example, a value of 40 represents 60% growth inhibition. A value of 0 means no net growth occurred over the course of the experiment. […]
The panel holds about 83,000 compounds, 20% with a hit somewhere; the sample as a whole holds those more often. Calls of active or inactive are those of the source. How the source made its calls: active means growth percent below 10; inactive means the rest.
Give your call using only these classes: true = active, false = inactive

[[record]]
compound = "O=C1/C(=C/c2cccc(OCc3ccccc3)c2)Oc2cc(OCCN3CCCCC3)ccc21"
group_label = "false"


input: Per the assay record, what outcome was assigned to CCOC(CNC(=O)c1cccc([N+](=O)[O-])c1)OCC ?
output: false

input: Please give the result for CC(C)CCSc1nc(N)nc2nc[nH]c12 too.
output: false

input: Please give the result for CCN(CC)c1ccc2cc(C(Nc3ccc(Br)c(C(F)(F)F)c3)c3nnnn3C(C)(C)C)c(=O)oc2c1 (stereo not given) too.
output: false

input: Please give the result for Cc1ccc(Oc2c(/C=N/NC(=O)Cn3c(=O)sc4ccccc43)c(C)nn2-c2ccccc2)cc1 too.
output: false

input: Please give the result for CCOc1ccc2sc(NS(=O)(=O)c3ccc(N)cc3)nc2c1 too.
output: false

input: Please give the result for COc1cc(/C=C/C(=O)/C=C/c2ccc(-n3ccnc3)cc2)ccc1O too.
output: false

input: Please give the result for CCN(CC)c1ccc(/C=C/c2ccc3cc(C)ccc3[n+]2CC)cc1 too.
output: false

input: Please give the result for CC1(C)CC[C@]2(C(N)=O)CC[C@]3(C)C(=CC[C@@H]4[C@@]5(C)C/C(=C/c6cccnc6)C(=O)C(C)(C)[C@@H]5CC[C@]43C)[C@@H]2C1 too.
output: true

input: Please give the result for C#CCC(C(=O)OCC)C(=O)OCC too.
output: false

input: Please give the result for CCCOc1ccc(-c2nc(-c3ccc(N)cc3)cs2)cc1 too.
output: false

input: Please give the result for O=C(CCCCCCSc1nc(-c2ccc(Cl)cc2)cc(-c2ccc(Cl)cc2)n1)NO too.
output: true

input: Please give the result for CCCCCCCCCCCCNC(=S)N/N=C/c1ccccc1O too.
output: false

input: Please give the result for N/C(=N\c1nc2ccccc2[nH]1)NC(=O)Cc1cccc2ccccc12 too.
output: false

input: Please give the result for Cn1cc(-c2noc(-c3cn(C)c4ncc(F)cc34)n2)c2cc(Cl)ccc21 too.
output: false

input: Please give the result for C#CCOc1ccc(C2=NN(CC3CC3)C3N=C(Cl)c4ncn(CC5CC5)c4N23)cc1OCC#C (stereo not given) too.
output: false
